Quick note: these are Ki numbers for system: Carbonic anhydrase 2 (Homo sapiens)
result type: Ki (nM)

Please review the entries below; each comes with its answer.
# structure string, reading unit, Ki
data = [
    ("C[C@H](CCC(=O)NCCc1ccc(S(N)(=O)=O)cc1)[C@H]1CC[C@H]2[C@@H]3[C@H](O)C[C@@H]4C[C@H](O)CC[C@]4(C)[C@H]3C[C@H](O)[C@]12C", "nM", 86),
    ("C[C@H](CCC(=O)NCCc1ccc(S(N)(=O)=O)cc1)[C@H]1CC[C@H]2[C@@H]3CC[C@@H]4C[C@H](O)CC[C@]4(C)[C@H]3C[C@H](O)[C@]12C", "nM", 77),
]

(A) C[C@H](CCC(=O)Nc1cccc(S(N)(=O)=O)c1)[C@H]1CC[C@H]2[C@@H]3C(=O)C[C@@H]4CC(=O)CC[C@]4(C)[C@H]3CC(=O)[C@]12C
(B) C[C@H](CCC(=O)/N=c1/sc(S(N)(=O)=O)nn1C)[C@H]1CC[C@H]2[C@@H]3[C@H](O)C[C@@H]4C[C@H](O)CC[C@]4(C)[C@H]3C[C@H](O)[C@]12C
Between A and B , which one shows the smaller Ki number? Indicate your choice by writing its label. B
(B: 12 nM, A: 156 nM)

(1) C[C@H](CCC(=O)NCCC(=O)Nc1nnc(S(N)(=O)=O)s1)[C@H]1CC[C@H]2[C@@H]3CC[C@@H]4C[C@H](O)CC[C@]4(C)[C@H]3C[C@H](O)[C@]12C
(2) C[C@H](CCC(=O)Nc1ccc(S(N)(=O)=O)cc1Br)[C@H]1CC[C@H]2[C@@H]3CC[C@@H]4C[C@H](O)CC[C@]4(C)[C@H]3CC[C@]12C
Higher Ki between 1 and 2 ? Indicate your choice by writing its label. 2
(2: 21 nM, 1: 2.1 nM)

* * *

Quick note: these are Ki numbers for system: Carbonic anhydrase 1 (Homo sapiens)
result type: Ki (nM)

# structure string, test result
rows = [
    ("C[C@H](CCC(=O)Nc1cccc(S(N)(=O)=O)c1)[C@H]1CC[C@H]2[C@@H]3CC[C@@H]4C[C@H](O)CC[C@]4(C)[C@H]3CC[C@]12C", 9500),
]

(P) C[C@H](CCC(=O)Oc1ccc2nc(S(N)(=O)=O)sc2c1)[C@H]1CC[C@H]2[C@@H]3[C@@H](O)C[C@@H]4C[C@H](O)CC[C@]4(C)[C@H]3CC[C@]12C
(Q) C[C@H](CCC(=O)Nc1nnc(S(N)(=O)=O)s1)[C@H]1CC[C@H]2[C@@H]3CC[C@@H]4C[C@H](O)CC[C@]4(C)[C@H]3C[C@H](O)[C@]12C
(R) C[C@H](CCC(=O)Nc1cc(Cl)c(S(N)(=O)=O)cc1S(N)(=O)=O)[C@H]1CC[C@H]2[C@@H]3[C@@H](O)C[C@@H]4C[C@H](O)CC[C@]4(C)[C@H]3CC[C@]12C
Provide the items ranked by increasing Ki. List the labels according to the requested ordering. P, R, Q

* * *

molecular target: Carbonic anhydrase 1 (Homo sapiens, UniProt P00915)
Sequence (P00915 whole entry): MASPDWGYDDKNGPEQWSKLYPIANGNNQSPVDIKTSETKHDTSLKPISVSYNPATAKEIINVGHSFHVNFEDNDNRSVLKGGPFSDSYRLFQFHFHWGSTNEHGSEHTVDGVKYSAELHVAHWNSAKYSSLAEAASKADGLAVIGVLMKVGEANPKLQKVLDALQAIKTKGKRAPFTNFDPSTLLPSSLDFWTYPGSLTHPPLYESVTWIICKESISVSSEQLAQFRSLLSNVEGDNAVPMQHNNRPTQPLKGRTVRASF
pKi: −log10 of the molar value.
result type: pKi

Please review the entries below; each comes with its answer.
# structure string, test result
data = [
    ("C[C@H](CCC(=O)NCCc1ccc(S(N)(=O)=O)cc1)[C@H]1CC[C@H]2[C@@H]3[C@H](O)C[C@@H]4C[C@H](O)CC[C@]4(C)[C@H]3CC[C@]12C", 5.48),
    ("C[C@H](CCC(=O)/N=c1\\sc(S(N)(=O)=O)nn1C)[C@H]1CC[C@H]2[C@@H]3C(=O)C[C@@H]4CC(=O)CC[C@]4(C)[C@H]3CC(=O)[C@]12C", 7.54),
]

(P) C[C@H](CCC(=O)Nc1ccc(S(N)(=O)=O)cc1F)[C@H]1CC[C@H]2[C@@H]3CC[C@@H]4C[C@H](O)CC[C@]4(C)[C@H]3C[C@H](O)[C@]12C
(Q) C[C@H](CCC(=O)OCCOc1ccc2nc(S(N)(=O)=O)sc2c1)[C@H]1CC[C@H]2[C@@H]3[C@H](O)C[C@@H]4C[C@H](O)CC[C@]4(C)[C@H]3CC[C@]12C
(R) C[C@H](CCC(=O)Nc1ccccc1S(N)(=O)=O)[C@H]1CC[C@H]2[C@@H]3CC[C@@H]4C[C@H](O)CC[C@]4(C)[C@H]3C[C@H](O)[C@]12C
(S) C[C@H](CCC(=O)OCCc1ccc(S(N)(=O)=O)cc1)[C@H]1CC[C@H]2[C@@H]3C(=O)C[C@@H]4CC(=O)CC[C@]4(C)[C@H]3CC(=O)[C@]12C
Provide the items ranked by increasing pKi. List the labels according to the requested ordering. R, P, S, Q

* * *

Quick note: these are pKi numbers for system: Carbonic anhydrase 4 (Bos taurus, UniProt Q95323)
Sequence (Q95323 whole entry): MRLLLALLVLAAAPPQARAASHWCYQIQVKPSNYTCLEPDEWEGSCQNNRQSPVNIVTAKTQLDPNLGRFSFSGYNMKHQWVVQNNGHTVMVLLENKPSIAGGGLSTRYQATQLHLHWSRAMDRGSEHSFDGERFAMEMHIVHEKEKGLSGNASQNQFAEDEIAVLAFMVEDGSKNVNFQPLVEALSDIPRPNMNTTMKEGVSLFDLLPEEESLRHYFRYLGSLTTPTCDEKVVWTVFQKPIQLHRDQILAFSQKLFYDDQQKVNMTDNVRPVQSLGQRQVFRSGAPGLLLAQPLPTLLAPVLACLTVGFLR
pKi: −log10 of the molar value.
result type: pKi

Please review the entries below; each comes with its answer.
# structure string, study target, pKi
records = [
    ("C[C@H](CCC(=O)NCCC(=O)Nc1nnc(S(N)(=O)=O)s1)[C@H]1CC[C@H]2[C@@H]3C(=O)C[C@@H]4CC(=O)CC[C@]4(C)[C@H]3CC(=O)[C@]12C", "Carbonic anhydrase 4 (Bos taurus, UniProt Q95323)", 8.15),
    ("C[C@H](CCC(=O)Nc1ccc(S(N)(=O)=O)cc1)[C@H]1CC[C@H]2[C@@H]3CC[C@@H]4C[C@H](O)CC[C@]4(C)[C@H]3CC[C@]12C", "Carbonic anhydrase 4 (Bos taurus, UniProt Q95323)", 6.55),
    ("C[C@H](CCC(=O)OCc1ccc(S(N)(=O)=O)cc1)[C@H]1CC[C@H]2[C@@H]3[C@H](O)C[C@@H]4C[C@H](O)CC[C@]4(C)[C@H]3CC[C@]12C", "Carbonic anhydrase 4 (Bos taurus, UniProt Q95323)", 6.47),
]

(P) C[C@H](CCC(=O)Nc1ccc(S(N)(=O)=O)cc1I)[C@H]1CC[C@H]2[C@@H]3[C@H](O)C[C@@H]4C[C@H](O)CC[C@]4(C)[C@H]3CC[C@]12C
(Q) C[C@H](CCC(=O)Oc1ccc2nc(S(N)(=O)=O)sc2c1)[C@H]1CC[C@H]2[C@@H]3[C@H](O)C[C@@H]4C[C@H](O)CC[C@]4(C)[C@H]3C[C@H](O)[C@]12C
(R) C[C@H](CCC(=O)Nc1ccccc1S(N)(=O)=O)[C@H]1CC[C@H]2[C@@H]3C(=O)C[C@@H]4CC(=O)CC[C@]4(C)[C@H]3CC(=O)[C@]12C
(S) C[C@H](CCC(=O)NCc1ccc(S(N)(=O)=O)cc1)[C@H]1CC[C@H]2[C@@H]3[C@@H](O)C[C@@H]4C[C@H](O)CC[C@]4(C)[C@H]3CC[C@]12C
(T) C[C@H](CCC(=O)Nc1ccc(S(N)(=O)=O)cc1I)[C@H]1CC[C@H]2[C@@H]3C(=O)C[C@@H]4CC(=O)CC[C@]4(C)[C@H]3CC(=O)[C@]12C
Ranking field: pKi; order: falling. List the labels according to the requested ordering. Q, T, S, P, R
(Q: 8.05, T: 7.72, S: 7.40, P: 6.96, R: 6.30)

* * *

Quick note: these are Ki numbers for system: Carbonic anhydrase 2 (Homo sapiens)
result type: Ki (nM)

Please review the entries below; each comes with its answer.
# structure string, Ki [nM]
measured = [
    ("C[C@H](CCC(=O)Nc1ccc(S(N)(=O)=O)cc1I)[C@H]1CC[C@H]2[C@@H]3C(=O)C[C@@H]4CC(=O)CC[C@]4(C)[C@H]3CC(=O)[C@]12C", 10),
    ("C[C@H](CCC(=O)Nc1ccc2nc(S(N)(=O)=O)sc2c1)[C@H]1CC[C@H]2[C@@H]3[C@H](O)C[C@@H]4C[C@H](O)CC[C@]4(C)[C@H]3C[C@H](O)[C@]12C", 5),
    ("C[C@H](CCC(=O)OCc1ccc(S(N)(=O)=O)cc1)[C@H]1CC[C@H]2[C@@H]3C(=O)C[C@@H]4CC(=O)CC[C@]4(C)[C@H]3CC(=O)[C@]12C", 71),
]

(A) C[C@H](CCC(=O)OCCOc1ccc2nc(S(N)(=O)=O)sc2c1)[C@H]1CC[C@H]2[C@@H]3[C@H](O)C[C@@H]4C[C@H](O)CC[C@]4(C)[C@H]3CC[C@]12C
(B) C[C@H](CCC(=O)Nc1ccc(S(N)(=O)=O)cc1Br)[C@H]1CC[C@H]2[C@@H]3C(=O)C[C@@H]4CC(=O)CC[C@]4(C)[C@H]3CC(=O)[C@]12C
Higher Ki between A and B ? Indicate your choice by writing its label. B
(B: 9 nM, A: 5.2 nM)

* * *

biological target: Carbonic anhydrase 2 (Homo sapiens)
result type: Ki (nM)

Please review the entries below; each comes with its answer.
# structure string, study target, result type, reading unit, test result
records = [
    ("C[C@H](CCC(=O)OCCc1ccc(S(N)(=O)=O)cc1)[C@H]1CC[C@H]2[C@@H]3[C@H](O)C[C@@H]4C[C@H](O)CC[C@]4(C)[C@H]3CC[C@]12C", "Carbonic anhydrase 2 (Homo sapiens)", "Ki", "nM", 90),
    ("C[C@H](CCC(=O)/N=c1\\sc(S(N)(=O)=O)nn1C)[C@H]1CC[C@H]2[C@@H]3C(=O)C[C@@H]4CC(=O)CC[C@]4(C)[C@H]3CC(=O)[C@]12C", "Carbonic anhydrase 2 (Homo sapiens)", "Ki", "nM", 1),
]

(P) C[C@H](CCC(=O)Nc1ccc(S(N)(=O)=O)cc1)[C@H]1CC[C@H]2[C@@H]3[C@H](O)C[C@@H]4C[C@H](O)CC[C@]4(C)[C@H]3C[C@H](O)[C@]12C
(Q) C[C@H](CCC(=O)OCCc1ccc(S(N)(=O)=O)cc1)[C@H]1CC[C@H]2[C@@H]3[C@H](O)C[C@@H]4C[C@H](O)CC[C@]4(C)[C@H]3C[C@H](O)[C@]12C
(R) C[C@H](CCC(=O)Nc1c(S(N)(=O)=O)cc(S(N)(=O)=O)c(Cl)c1Cl)[C@H]1CC[C@H]2[C@@H]3[C@H](O)C[C@@H]4C[C@H](O)CC[C@]4(C)[C@H]3CC[C@]12C
Ranking field: Ki; order: falling. List the labels according to the requested ordering. P, Q, R
(P: 210 nM, Q: 80 nM, R: 21 nM)
